- protocol_details: Stability of JAK3 covalent inhibitors in human whole blood;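 note: parent compound remaining over incubation time quantified by LC-MS/MS as peak area ratio against an internal standard, using pooled K2-EDTA blood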
- Format: in vitro ADME
- measurement_setup: both sexes, whole blood, 37° C., read-out: Human blood stability t1/2
experimental_readout: half-life at 1 μM

Guide cases for half-life at 1 μM, answers given:
molecule | experimental_readout | measured
C=CC(=O)N1CCC[C@@H](Nc2ncnc3[nH]cc(Cl)c23)C1 [Example 3] | half-life at 1 μM | 3.2 h
C=CC(=O)N1C[C@H](C)C[C@@H](Nc2ncnc3[nH]ccc23)C1 [Example 74] | half-life at 1 μM | 1.72 h
C=CC(=O)N1CCC(Nc2cnc3[nH]cc(C(=O)NC(C)(C)C)c3n2)C[C@@H]1C (mixture of isomers) [Example 340] | half-life at 1 μM | > 6 h
C=CC(=O)N1CCC[C@@H](Nc2ncnc3[nH]cc(-c4ccc(C)nc4)c23)C1 [Example 66] | half-life at 1 μM | > 6 h
C=CC(=O)N1CCC(Nc2cnc3[nH]cc(-c4ccnc(C)c4)c3n2)CC1 [Example 201] | half-life at 1 μM | > 6 h
C=CC(=O)N1CCC(Nc2cnc3[nH]cc(C(=O)NCCOC)c3n2)CC1 [Example 275] | half-life at 1 μM | > 6 h

Entry C=CC(=O)N1CCN(c2cnc3[nH]cc(C(=O)NC(C)C)c3n2)C[C@@H]1C [Example 295] , half-life at 1 μM reported as 3.15 h

Entry C=CC(=O)N1CC(Nc2ncnc3[nH]ccc23)CCC1CO (centres unmarked) [Example 52] , half-life at 1 μM reported as > 5.97 h
